Tested on: MDA-MB-468 breast
procedure summary: NCI-60 one-dose screen, 48 h (100 = growth as untreated, 0 = no growth, -100 = all killed)
test parameters: 10 µM unless noted
This is part of a sample that, as a whole, favours compounds with a hit. Of some 83,000 tested, about 20% had one in any assay.
Reported growth values follow for various compounds
quantity: growth (%)

[[record]]
compound = "N#Cc1c(-c2ccc(Cl)cc2)nc2n[nH]c(-c3ccc(Cl)cc3)c2c1-c1ccc(C(F)(F)F)cc1"
tested_target = "MDA-MB-468 breast"
output_unit = "%"
quantitative_readout = -45

[[record]]
compound = "COc1ccc(NC(=O)[C@@H](N)Cc2ccccc2)cc1C(=O)Nc1cccc(C2CC(=O)c3c(cc(OC)c(OC)c3OC)O2)c1 (stereo partly specified)"
tested_target = "MDA-MB-468 breast"
output_unit = "%"
quantitative_readout = 44.3

[[record]]
compound = "Cc1ccc(-c2nc(C#N)c(S(=O)(=O)N3CCN(S(=O)(=O)c4ccccc4)CC3)o2)cc1"
tested_target = "MDA-MB-468 breast"
output_unit = "%"
quantitative_readout = -49.3

[[record]]
compound = "COc1ccc(N2N=C(c3ccc4c(c3)OCO4)CC2c2cccc(NC(=O)CCNS(=O)(=O)c3ccc(Cl)cc3)c2)cc1 (stereo unspecified)"
tested_target = "MDA-MB-468 breast"
output_unit = "%"
quantitative_readout = 10.1

[[record]]
compound = "C(=C\\c1cc(/C=C/c2ccccc2)c2ccccc2n1)/c1ccccc1"
tested_target = "MDA-MB-468 breast"
output_unit = "%"
quantitative_readout = 107

[[record]]
compound = "CC(=O)OC[C@@]1(C)C2CC[C@]3(C)C(CC=C4C5CC(C)(C)CC[C@]5(C(=O)Nc5cccc(C)c5)CC[C@]43C)[C@@]2(C)C[C@@H](OC(C)=O)[C@@H]1OC(C)=O (stereo partly specified)"
tested_target = "MDA-MB-468 breast"
output_unit = "%"
quantitative_readout = 1.92


----------
System: LOX IMVI melanoma
procedure summary: NCI-60 one-dose screen, 48 h
test parameters: 10 µM
The panel holds about 83,000 compounds, 20% with a hit somewhere; the sample as a whole holds those more often. The source made the active and inactive calls. Rule for the calls: active = growth percent below 10; inactive = the rest.
Possible outcomes: YES = active, NO = inactive

[[record]]
compound_structure_string = "Clc1cccc(-c2ccc(OCCCN3CCN(c4ccncc4)CC3)cc2)c1"
assigned_label = "YES"

[[record]]
compound_structure_string = "CCOC(=O)c1ccc(Nc2nc(NN)nc(-c3ccc(OC)cc3)c2C#N)cc1"
assigned_label = "NO"

[[record]]
compound_structure_string = "Nc1nc(-c2ccccc2)c(N=Nc2ccc(Cl)cc2[N+](=O)[O-])s1"
assigned_label = "NO"

[[record]]
compound_structure_string = "CCCSc1nc(Nc2ccc(S(N)(=O)=O)cc2)c(C#N)c(-c2cc(OC)c(OC)c(OC)c2)n1"
assigned_label = "YES"

[[record]]
compound_structure_string = "COc1cc2oc(-c3cccc(C(=O)Nc4ccc(Cl)cc4)c3)cc(=O)c2c(OCC(=O)N[C@@H](Cc2ccccc2)C(=O)O)c1OC"
assigned_label = "NO"

[[record]]
compound_structure_string = "COc1ccc(-c2nc3cc(C)ccc3n2CC(=O)N=Nc2c(O)[nH]c3ccc(Cl)cc23)cc1"
assigned_label = "YES"


----------
System: SF-295 CNS
procedure summary: NCI-60 one-dose screen, 48 h (100 = growth as untreated, 0 = no growth, -100 = all killed)
test parameters: 10 µM unless noted
Protocol: Cells are grown in 96 well plates and exposed to the test compound for 48 hours. Compounds are tested at a single concentration, which is 10^-5 M for most compounds. The reported endpoint is percent growth (GI% or GIPRCNT), where numbers from 0 - 100% represent growth inhibition, and numbers from -100% - 0 represent cell death. For example, a value of 40 represents 60% growth inhibition. A value of 0 means no net growth occurred over the course of the experiment. […]
This is part of a sample that, as a whole, favours compounds with a hit. Of some 83,000 tested, about 20% had one in any assay.
quantity: growth (%)

[[record]]
compound = "Cc1ccc(C(=O)NN2C(=O)/C(=C/C=C/c3ccc([N+](=O)[O-])o3)SC2=S)cc1"
tested_target = "SF-295 CNS"
quantitative_readout = -87.6

[[record]]
compound = "O=C(COc1ccc(NC(=O)Nc2ccc(Cl)c(Cl)c2)cc1)N=Nc1c(O)[nH]c2ccc(Br)cc12"
tested_target = "SF-295 CNS"
quantitative_readout = -68.3

[[record]]
compound = "COc1ccc2[nH]cc(-c3nc(N)nnc3-c3cn(C)c4ncccc34)c2c1"
tested_target = "SF-295 CNS"
quantitative_readout = 39.9

[[record]]
compound = "CC(/C=C1\\SC(=S)N(CCCC(=O)NC(CC(C)C)C(=O)O)C1=O)=C\\c1ccccc1 (stereo not drawn)"
tested_target = "SF-295 CNS"
quantitative_readout = 97.4

[[record]]
compound = "COc1cc(C2CC(c3cc(OC)c(OC)c(OC)c3)=NN2C(C)=O)ccc1OCc1ccc(F)cc1 (stereo not drawn)"
tested_target = "SF-295 CNS"
quantitative_readout = 37.7

[[record]]
compound = "COc1c(F)ccc(C(=O)Nc2ccc3nc(NC(=O)C4CCCN(S(=O)(=O)c5ccc(C(F)(F)F)cc5)C4)sc3c2)c1F (stereo not drawn)"
tested_target = "SF-295 CNS"
quantitative_readout = 74.7

[[record]]
compound = "O=C(N/N=C/c1ccc(-c2ccc(O)cc2)o1)c1[nH]c2ccc(Br)cc2c1-c1ccccc1"
tested_target = "SF-295 CNS"
quantitative_readout = -68.7

[[record]]
compound = "CC(=O)Nc1cccc(Nc2nc(N[C@H]3CCCc4ccccc43)c3ccccc3n2)c1"
tested_target = "SF-295 CNS"
quantitative_readout = 97.3


----------
Reported growth values follow for various compounds
System: HCT-116 colon
procedure summary: NCI-60 one-dose screen, 48 h (100 = growth as untreated, 0 = no growth, -100 = all killed)
test parameters: 10 µM unless noted
About 83,000 compounds went through this panel and 20% of them were active in at least one assay; those are over-represented in the sample as a whole.
quantity: growth (%)

[[record]]
compound = "Cn1cc(-c2cc(N)n3nc(-c4c[nH]c5ccccc45)cc3n2)c2cc(Br)cnc21"
quantitative_readout = -90.7

[[record]]
compound = "COc1ccc(-c2nc3cc(C)ccc3n2CC(=O)N=Nc2c(O)[nH]c3ccccc23)cc1"
quantitative_readout = -95.1

[[record]]
compound = "N/C(=N\\c1nc2ccccc2s1)NC(=O)NCCCCCCO"
quantitative_readout = 36.9

[[record]]
compound = "O=C(/C=C/c1cccc(OCc2ccccc2)c1)c1nc2ccccc2[nH]1"
quantitative_readout = -36.1

[[record]]
compound = "NS(=O)(=O)c1ccc(NNC(=O)CCC(=O)c2ccccc2)cc1"
quantitative_readout = 99

[[record]]
compound = "CCCCSc1nc(Nc2ccc(S(N)(=O)=O)cc2)c(C#N)c(-c2cc(OC)c(OC)c(OC)c2)n1"
quantitative_readout = 21.8

[[record]]
compound = "N#Cc1c(-c2ccc(Br)cc2)nc2n[nH]c(-c3ccc(Br)cc3)c2c1-c1ccc(F)cc1"
quantitative_readout = 95.3

[[record]]
compound = "Cn1cc(-c2cc(N)n3nc(-c4cn(C)c5ccccc45)cc3n2)c2cc(Cl)ccc21"
quantitative_readout = -89.1

[[record]]
compound = "O=C(Nc1ccccc1)N1CCN(c2cc(-c3cn(-c4ccccc4)nc3-c3cccc(O)c3)ccn2)CC1"
quantitative_readout = 65.7

[[record]]
compound = "COc1cccc(/C=C/C(=O)c2ccc(OC)c(S(N)(=O)=O)c2)c1"
quantitative_readout = -73.8

[[record]]
compound = "COc1c(F)ccc(C(=O)Nc2ccc3nc(NC(=O)C4CCCN(S(=O)(=O)c5ccc(Br)s5)C4)sc3c2)c1F (stereo unspecified)"
quantitative_readout = 65.4

[[record]]
compound = "O=C(COc1ccc2c(c1)CCCC(=O)N2)NCc1ccccc1"
quantitative_readout = 93.5

[[record]]
compound = "CC(=O)Oc1ccc(/C=C/C(=O)N[C@@H](Cc2ccccc2)C(O)C(=O)NCc2ccccc2)cc1OC(C)=O (stereo partly specified)"
quantitative_readout = 78.4

[[record]]
compound = "COc1ccc(C(=O)/C=C/c2cccc(Br)c2)cc1S(N)(=O)=O"
quantitative_readout = -99.2

[[record]]
compound = "CC(/C=C1\\SC(=S)N(CCCC(=O)NC(CC(C)C)C(=O)O)C1=O)=C\\c1ccccc1 (stereo unspecified)"
quantitative_readout = 71

[[record]]
compound = "C=C1CC[C@@H]2[C@]3(C)COC(c4cn(-c5ccccc5)nc4-c4cccc([N+](=O)[O-])c4)O[C@@H]3CC[C@@]2(C)[C@@H]1C/C=C1/C(=O)OC[C@H]1O (stereo partly specified)"
quantitative_readout = -13.7


----------
Reported growth values follow for various compounds
Tested on: OVCAR-3 ovarian
procedure summary: NCI-60 one-dose screen, 48 h (100 = growth as untreated, 0 = no growth, -100 = all killed)
test parameters: 10 µM unless noted
This is part of a sample that, as a whole, favours compounds with a hit. Of some 83,000 tested, about 20% had one in any assay.
quantity: growth (%)

[[record]]
compound_structure_string = "COc1ccc(C(=O)/C=C/c2ccc3ccccc3c2)cc1S(N)(=O)=O"
quantitative_readout = -41.9

[[record]]
compound_structure_string = "O=C(NNc1nc2cc(F)ccc2n2c(CN3CCCCC3)ccc12)c1cnccn1"
quantitative_readout = -45.9

[[record]]
compound_structure_string = "Cn1cc(-c2cc3nc(-c4c[nH]c5ccc(Br)cc45)cc(N)n3n2)c2ccccc21"
quantitative_readout = -40

